- Test system: Bacillus subtilis
- Procedure details: Bactericidal activity against Bacillus subtilis ATCC 6633 after overnight incubation
- Format: functional
MBC listing for selected compounds.
// units = µg/mL; emit number, no label

Structure notation | MBC / µg/mL
CCCCCCCCCCOCc1cn([C@H]2C(=O)N[C@@H]3Cc4ccc(c(Cl)c4)Oc4cc5cc(c4O)Oc4ccc(cc4Cl)[C@@H](O)[C@@H]4NC(=O)[C@H](NC(=O)[C@@H]5NC(=O)[C@@H](NC3=O)c3cc(O)cc(c3)Oc3cc2ccc3O)c2ccc(O)c(c2)-c2c(O)cc(O)cc2[C@H](C(=O)OC)NC4=O)nn1 | 0.5

Input: Give MBC for the following compound: `CCCCCCCCCCOCc1cn([C@H]2C(=O)N[C@@H]3Cc4ccc(c(Cl)c4)Oc4cc5cc(c4O)Oc4ccc(cc4Cl)[C@@H](O[C@@H]4O[C@H](CO)[C@@H](O)[C@H](O)[C@H]4NC(C)=O)[C@@H]4NC(=O)[C@H](NC(=O)[C@@H]5NC(=O)[C@@H](NC3=O)c3cc(O)cc(c3)Oc3cc2ccc3O)c2ccc(O)c(c2)-c2c(O)cc(O)cc2[C@H](C(=O)OC)NC4=O)nn1`
Output: 4

Attribution: ChEMBL document CHEMBL1156074
